These entries and their values trace back to the supplement of paper PMC6757056.

B1: library; a variant is named by its letters at N, in order (parent)
chain: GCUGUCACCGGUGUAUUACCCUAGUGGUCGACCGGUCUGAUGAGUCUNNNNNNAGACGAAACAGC

- Variants of: B1
- experiment: normalized RNA/DNA level with ligand (relative to sTRSVctl = 100) (log10 (% of sTRSVctl)); ligand: hypoxanthine (xanthine aptamer); higher = less ribozyme self-cleavage, higher mRNA level
- protocolConditions: ligand concentration (+) RNA-Seq: 5 mM, HEK293T, reporter: mCherry (pCS4076), ligand present: yes
Overview of recorded normalized RNA/DNA level with ligand (log10) for various variants
endpoint: normalized RNA/DNA level with ligand (log10)

- mutationString: "CGGUAC"
  recordedResult: 1.88
- mutationString: "UCUCCG"
  recordedResult: 1.85
- mutationString: "UCGACC"
  recordedResult: 1.98
- mutationString: "UUCUGA"
  recordedResult: 2.03
- mutationString: "UUCUAA"
  recordedResult: 1.96
- mutationString: "CCUUGU"
  recordedResult: 1.93
- mutationString: "CUGAGA"
  recordedResult: 1.93
- mutationString: "ACCACC"
  recordedResult: 2.01
- mutationString: "UGAUUU"
  recordedResult: 1.95
- mutationString: "GCACCU"
  recordedResult: 1.94
- mutationString: "CGGAGG"
  recordedResult: 1.78
